Assay: Quantitative highthroughput screen to assess conditional lethalithy of P12 Ichikawa cells grown in Human Plasma-Like Medium with dialyzed fetal bovine serum (HPLM+ds) (AID 1963879); further: nearly all actives have a fitted effect of over 35% in size
Conditions: ATP luminescence, 48 h; viability; series mostly up to 45.8 µM
Inconclusive results are not listed. Activity calls are given as the source filed them. The call rests on the fitted dose curve; in most records, active means well fitted cell-killing curve with a large enough effect; inconclusive means small, poorly fitted or top-dose-only effect; inactive means flat fitted curve, though single readings scatter.
// classify into TRUE = active, FALSE = inactive

- compound: "COc1ccccc1-c1cccc(-c2c(O)c3cc(C#N)c(Cl)cc3[nH]c2=O)c1"
  class.label: "TRUE"
- compound: "CNC(=O)CN1CCC(Oc2cc3c(Nc4cccc(Cl)c4F)ncnc3cc2OC)CC1"
  class.label: "TRUE"
- compound: "O=C1CCC[C@@H]2[C@H]3CCC[N+]4([O-])CCC[C@@H](CN12)[C@@H]34 (stereo not given in full)"
  class.label: "FALSE"
- compound: "COc1ccc(F)c(F)c1C(=O)c1cnc(NC2CCN(S(C)(=O)=O)CC2)nc1N"
  class.label: "TRUE"

stdin: Field: outcome | Entry: COc1ccc(C[C@@H](C)[C@@H](C)Cc2ccc(OC)c(OC)c2)cc1OC
stdout: TRUE

---

Assay: Quantitative highthroughput screen to assess conditional lethalithy of P12 Ichikawa cells grown in RPMI1640 with dialyzed fetal bovine serum (RPMI+ds) (AID 1963880); further: nearly all actives have a fitted effect of over 35% in size;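 on viability: 100% = DMSO wells and 0% = empty wells on each plate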
Details: ATP luminescence, 48 h; P12-Ichikawa viability; series mostly up to 45.8 µM
Records with an inconclusive call do not appear. Activity calls are given as the source filed them. Calls come from the whole dose curve; as a rule, active = well fitted cell-killing curve with a large enough effect; inconclusive = small, poorly fitted or top-dose-only effect; inactive = flat fitted curve, though single readings scatter.
// classify into active, inactive

- compound: "COc1ccc(-c2oc3cc(OC)ccc3c2C(=O)c2ccc(C#N)cc2)cc1"
  class.label: "active"
- compound: "COC(=O)Nc1ccc(-c2nc(N3CCOCC3)c3cnn(C4CCN(Cc5cccnc5)CC4)c3n2)cc1"
  class.label: "active"
- compound: "C[C@H](NC(=O)C(=O)Nc1ccccc1C(C)(C)C)C(=O)N[C@@H](CC(=O)O)C(=O)COc1c(F)c(F)cc(F)c1F"
  class.label: "active"
- compound: "Cc1oc(=O)oc1CN1CCN(c2cc3c(cc2F)c(=O)c(C(=O)O)c2n3C(C)S2)CC1 (stereo not given)"
  class.label: "inactive"

stdin: Field: outcome | Entry: C[C@@H](Cc1cc2c(c(C(N)=O)c1)N(CCCO)CC2)NCCOc1ccccc1OCC(F)(F)F
stdout: inactive

---

Assay: Viability qHTS for spleen associated tyrosine kinase inhibitor (SYKi) naive MV4-11 cells (AID 1963823); further: nearly all actives have a fitted effect of over 40% in size
Details: MV4-11 AML viability, CellTiter-Glo luminescence, 72 h; series mostly up to 45 µM
Records with an inconclusive call do not appear. The source made the active and inactive calls. Calls follow the shape of the dose curve; as a rule, active = well fitted cell-killing curve with a large enough effect; inconclusive = small, poorly fitted or top-dose-only effect, or effect the other way; inactive = no such curve, though single readings can be large or run the other way.
// classify into yes (1) (active), no (0) (inactive)

- compound: "C1CCN2C[C@@H]3C[C@@H](CN4CCCC[C@@H]34)[C@H]2C1"
  class.label: "no (0)"
- compound: "O=C(O)/C(S)=C/c1ccc(I)cc1"
  class.label: "no (0)"
- compound: "N#C/C(=C1/SC[C@@H](c2ccc(Cl)cc2Cl)S1)n1ccnc1"
  class.label: "yes (1)"
- compound: "CC1(C)CCCC2(C)C1CC=C1C(=O)OC(O)C12O (stereo not given)"
  class.label: "no (0)"
- compound: "N#CC(=C(/N)Sc1ccccc1N)/C(C#N)=C(/N)Sc1ccccc1N"
  class.label: "yes (1)"

stdin: Field: outcome | Entry: O=C1OC(OC(=O)c2cccnc2Nc2cccc(C(F)(F)F)c2)c2ccccc21 (stereo not given)
stdout: no (0)

stdin: Field: outcome | Entry: CC/C(C)=C/C(=O)OC1C(OC2(C)CCC3C(C4C(C)CCC42)C3(C)C)OC(C)C(O)C1O (stereo not given)
stdout: yes (1)

stdin: Field: outcome | Entry: Cc1ccc(-c2c(-c3nn(C)c4ncnc(N5CCC(N6CCCCC6)C5)c34)cnn2C)cc1 (stereo not given)
stdout: yes (1)

stdin: Field: outcome | Entry: C[C@@H](Oc1ccc2[nH]nc(/C=C/c3cnn(CCO)c3)c2c1)c1c(Cl)cncc1Cl
stdout: yes (1)

stdin: Field: outcome | Entry: Cc1ccc(S(=O)(=O)NC(=O)NC2CCCCCCC2)cc1
stdout: no (0)

Values were extracted from PubChem BioAssay (NCATS).
